PROCEDURE DETAILS: Octanol/water partition coefficient
Assay type: physicochemical
ENDPOINT NAME: Log P

COMPOUND	READING
CCNC(=O)C1CC(C)CCC1C(C)C (stereo not shown) [WS-3, reference compound]	3.7
CCOc1ccc(NC(=O)C2CC(C)CCC2C(C)C)cc1 (stereo not shown)	5.8
COC(=O)C(NC(=O)C1CC(C)CCC1C(C)C)C(C)C (stereo not shown)	4.2
COC(=O)C(C)NC(=O)C1CC(C)CCC1C(C)C (stereo not shown)	2.8
COC(=O)CCC(NC(=O)C1CC(C)CCC1C(C)C)C(=O)OC (stereo not shown)	2.2
CCCOc1ccc(NC(=O)C2CC(C)CCC2C(C)C)cc1 (stereo not shown)	6.3
CC1CCC(C(C)C)C(C(=O)NC(C)C)C1 (stereo not shown) [WS-10, reference compound]	4.1
CCOC(=O)C(C)NC(=O)C1CC(C)CCC1C(C)C (stereo not shown)	3.1
CC1CCC(C(C)C)C(C(=O)NC(C)(C)CO)C1 (stereo not shown) [WS-11, reference compound]	2.9
CCCCOc1ccc(NC(=O)C2CC(C)CCC2C(C)C)cc1 (stereo not shown)	6.9
CCOC(=O)CCNC(=O)C1CC(C)CCC1C(C)C (stereo not shown)	3.1
CCOC(=O)CN(C)C(=O)C1CC(C)CCC1C(C)C (stereo not shown)	2.9
COC(=O)CNC(=O)C1CC(C)CCC1C(C)C (stereo not shown) [Gly Me Ester (WS-31), reference compound]	2.4
CCC(C)NC(=O)C1CC(C)CCC1C(C)C (stereo not shown) [WS-34, reference compound]	4.6
CC1CCC(C(C)C)C(C(=O)NC(C)(C)C)C1 (stereo not shown) [WS-14, reference compound]	4.5
COc1ccc(NC(=O)C2CC(C)CCC2C(C)C)c(OC)c1 (stereo not shown)	5.0
